experimental-system: Inadl_4, Q8NI35
Sequence (Q8NI35 547-651): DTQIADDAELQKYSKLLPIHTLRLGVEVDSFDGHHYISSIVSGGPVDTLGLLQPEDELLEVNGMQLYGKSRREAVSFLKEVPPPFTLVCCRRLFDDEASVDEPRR
method: holdup assay
Set-up: key: below the threshold = too weak to quantify, mostly under pKd 3.1 to 4
experimental-context: plain residues with an end cap or a label only (N-terminal biotin on a linker: ado-ado)
endpoint-name: pKd

Sample answers from the record:
{"binder": "RGKNRRQSIF [CDK18, Q07002]", "val": "below the threshold"}
{"binder": "KAEEKPPSKV [SCN4B, Q8IWT1]", "val": "below the threshold"}
{"binder": "KEKASTETEC [TRPM1, Q7Z4N2]", "val": "below the threshold"}
{"binder": "TNSKQGETTV [FZD1, Q9UP38]", "val": "below the threshold"}

Let me know recorded pKd for QKASRNESTF [POLR1D, P0DPB6] , thanks. below the threshold

Let me know recorded pKd for GSQSQVETEA [FKBP4, Q02790] , thanks. below the threshold

Let me know recorded pKd for HLSTRQGTCV [ATRNL1, Q5VV63] , thanks. below the threshold

Let me know recorded pKd for NKSEPFLTWL [WWTR1, Q9GZV5] , thanks. below the threshold
